SYSTEM_NAME: UniProt:P10481
Format: binding
Entries and their n (binding number of xanthone to the BNA)
VALUE_TYPE: n (binding number of xanthone to the BNA)

[[record]]
compound = "C=C(CCC=C(C)C)C(O)Cc1c(O)c(CC=C(C)C)c(O)c2c(=O)c3cc(O)ccc3oc12 (stereo not drawn)"
system_name = "UniProt:P10481"
reading = 0.4992

[[record]]
compound = "C=C(C)C(O)CC/C(C)=C/Cc1c(O)c(CC=C(C)C)c(O)c2c(=O)c3cc(O)ccc3oc12 (stereo not drawn)"
system_name = "UniProt:P10481"
reading = 1.2897

[[record]]
compound = "C=C(C)CC(O)c1c(O)c(C/C=C(\\C)CCC=C(C)C)c2oc3ccc(O)cc3c(=O)c2c1O (stereo not drawn)"
system_name = "UniProt:P10481"
reading = 0.7819

[[record]]
compound = "O=c1c2cc(O)ccc2oc2cc(O)cc(O)c12 [Gentisein, reference compound]"
system_name = "UniProt:P10481"
reading = 0.3701

[[record]]
compound = "CC(C)=CCc1c(O)c(C/C=C(\\C)C/C=C/C(C)(C)O)c2oc3ccc(O)cc3c(=O)c2c1O"
system_name = "UniProt:P10481"
reading = 0.2168

[[record]]
compound = "CC(C)=CCC/C(C)=C/Cc1c(O)c(CC=C(C)C)c(O)c2c(=O)c3cc(O)ccc3oc12"
system_name = "UniProt:P10481"
reading = 0.4337


---

SYSTEM_NAME: neuraminidase from Clostridium perfringens (BNA)
Format: biochemical
RECORDED_CONDITIONS: Lineweaver-Burk and Dixon plots
VALUE_TYPE: Kinetic mode

[[record]]
molecule = "CC(C)=CCc1c(O)c(C/C=C(\\C)C/C=C/C(C)(C)O)c2oc3ccc(O)cc3c(=O)c2c1O [Compound 3]"
system_name = "neuraminidase from Clostridium perfringens (BNA)"
reading = "Non-competitive"

[[record]]
molecule = "C=C(C)CC(O)c1c(O)c(C/C=C(\\C)CCC=C(C)C)c2oc3ccc(O)cc3c(=O)c2c1O (centres unmarked) [Compound 4, cratoxanthone A]"
system_name = "neuraminidase from Clostridium perfringens (BNA)"
reading = "Non-competitive"

[[record]]
molecule = "C=C(CCC=C(C)C)C(O)Cc1c(O)c(CC=C(C)C)c(O)c2c(=O)c3cc(O)ccc3oc12 (centres unmarked) [Compound 5, cratoxanthon F]"
system_name = "neuraminidase from Clostridium perfringens (BNA)"
reading = "Non-competitive"


---

SYSTEM_NAME: neuraminidase from Clostridium perfringens (BNA) (Clostridium perfringens)
Sequence (P10481 whole entry, looked up): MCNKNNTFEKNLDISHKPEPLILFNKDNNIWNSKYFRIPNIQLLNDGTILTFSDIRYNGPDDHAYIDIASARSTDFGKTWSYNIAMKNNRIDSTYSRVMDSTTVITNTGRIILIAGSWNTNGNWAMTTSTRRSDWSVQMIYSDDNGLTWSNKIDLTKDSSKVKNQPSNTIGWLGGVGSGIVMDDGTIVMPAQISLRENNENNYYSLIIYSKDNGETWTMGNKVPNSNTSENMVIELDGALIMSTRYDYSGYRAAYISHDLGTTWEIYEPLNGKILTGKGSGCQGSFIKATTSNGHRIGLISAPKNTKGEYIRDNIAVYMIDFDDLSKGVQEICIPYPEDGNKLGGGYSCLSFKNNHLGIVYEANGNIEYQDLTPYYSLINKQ
Assay type: binding
K A (affinity constant) values, listed per item
VALUE_TYPE: K A (affinity constant) (L/mol)

[[record]]
compound = "CC(C)=CCc1c(O)c(C/C=C(\\C)C/C=C/C(C)(C)O)c2oc3ccc(O)cc3c(=O)c2c1O [Compound 3]"
value_type = "K A (affinity constant)"
reading = 20

[[record]]
compound = "O=c1c2cc(O)ccc2oc2cc(O)cc(O)c12 [Gentisein, reference compound]"
value_type = "K A (affinity constant)"
reading = 110

[[record]]
compound = "C=C(CCC=C(C)C)C(O)Cc1c(O)c(CC=C(C)C)c(O)c2c(=O)c3cc(O)ccc3oc12 (stereo not drawn) [Compound 5, cratoxanthon F]"
value_type = "K A (affinity constant)"
reading = 1030

[[record]]
compound = "C=C(C)C(O)CC/C(C)=C/Cc1c(O)c(CC=C(C)C)c(O)c2c(=O)c3cc(O)ccc3oc12 (stereo not drawn) [Compound 1]"
value_type = "K A (affinity constant)"
reading = 244300

[[record]]
compound = "C=C(C)CC(O)c1c(O)c(C/C=C(\\C)CCC=C(C)C)c2oc3ccc(O)cc3c(=O)c2c1O (stereo not drawn) [Compound 4, cratoxanthone A]"
value_type = "K A (affinity constant)"
reading = 55450

[[record]]
compound = "CC(C)=CCC/C(C)=C/Cc1c(O)c(CC=C(C)C)c(O)c2c(=O)c3cc(O)ccc3oc12 [Compound 6, cochinechinone A]"
value_type = "K A (affinity constant)"
reading = 1800


---

SYSTEM_NAME: neuraminidase from Clostridium perfringens (BNA, EC 3.2.1.18)
Format: biochemical
RECORDED_CONDITIONS: text in the panels of supplementary Figure S36; read-out: IC50 printed in Figure S36
VALUE_TYPE: IC50 (µM)

[[record]]
molecule = "O=c1c2cc(O)ccc2oc2cc(O)cc(O)c12 [Gentisein, reference compound]"
unit_abbrev = "µM"
reading = 21.4


---

SYSTEM_NAME: neuraminidase from Clostridium perfringens (BNA)
Type: biochemical
RECORDED_CONDITIONS: Dixon plots; read-out: K i (inhibition constant)
Sorting guide: entries reporting Ki beneath 9 µM go in the 1.0 pile, the rest go in the 0.0 pile.

[[record]]
compound = "C=C(C)C(O)CC/C(C)=C/Cc1c(O)c(CC=C(C)C)c(O)c2c(=O)c3cc(O)ccc3oc12 (centres unmarked)"
class_assignment = 1.0

[[record]]
compound = "CC(C)=CCC/C(C)=C/Cc1c(O)c(CC=C(C)C)c(O)c2c(=O)c3cc(O)ccc3oc12"
class_assignment = 0.0

[[record]]
compound = "C=C(C)CC(O)c1c(O)c(C/C=C(\\C)CCC=C(C)C)c2oc3ccc(O)cc3c(=O)c2c1O (centres unmarked)"
class_assignment = 1.0

[[record]]
compound = "CC(C)=CCc1c(O)c(C/C=C(\\C)C/C=C/C(C)(C)O)c2oc3ccc(O)cc3c(=O)c2c1O"
class_assignment = 0.0


---

SYSTEM_NAME: neuraminidase from Clostridium perfringens (BNA) (Clostridium perfringens)
Format: binding
Binary call on K SV (Stern-Volmer constant) with cut-off 10000 L/mol: strictly below means satisfied, and equality or higher means not satisfied.

[[record]]
compound = "C=C(C)CC(O)c1c(O)c(C/C=C(\\C)CCC=C(C)C)c2oc3ccc(O)cc3c(=O)c2c1O (stereo not drawn) [Compound 4, cratoxanthone A]"
class_assignment = "not satisfied"

[[record]]
compound = "CC(C)=CCc1c(O)c(C/C=C(\\C)C/C=C/C(C)(C)O)c2oc3ccc(O)cc3c(=O)c2c1O [Compound 3]"
class_assignment = "satisfied"

[[record]]
compound = "O=c1c2cc(O)ccc2oc2cc(O)cc(O)c12 [Gentisein, reference compound]"
class_assignment = "satisfied"

[[record]]
compound = "C=C(C)C(O)CC/C(C)=C/Cc1c(O)c(CC=C(C)C)c(O)c2c(=O)c3cc(O)ccc3oc12 (stereo not drawn) [Compound 1]"
class_assignment = "not satisfied"


---

SYSTEM_NAME: neuraminidase from Clostridium perfringens (BNA, EC 3.2.1.18)
Assay type: biochemical
RECORDED_CONDITIONS: sodium acetate buffer pH 5.0, substrate 100 μM, BNA 0.02 unit/mL, triplicate; read-out: IC50
Recorded log10 IC50, one value per entry.
VALUE_TYPE: log10 IC50 (log10 of the value in µM)

[[record]]
compound = "C=C(CCC=C(C)C)C(O)Cc1c(O)c(CC=C(C)C)c(O)c2c(=O)c3cc(O)ccc3oc12 (stereo not drawn)"
value_type = "log10 IC50"
reading = 0.96

[[record]]
compound = "C=C(C)C(O)CC/C(C)=C/Cc1c(O)c(CC=C(C)C)c(O)c2c(=O)c3cc(O)ccc3oc12 (stereo not drawn)"
value_type = "log10 IC50"
reading = -0.42

[[record]]
compound = "C=C(C)CC(O)c1c(O)c(C/C=C(\\C)CCC=C(C)C)c2oc3ccc(O)cc3c(=O)c2c1O (stereo not drawn)"
value_type = "log10 IC50"
reading = 0.58

[[record]]
compound = "O=c1c2cc(O)ccc2oc2cc(O)cc(O)c12 [Gentisein, reference compound]"
value_type = "log10 IC50"
reading = 1.33

[[record]]
compound = "CC(C)=CCc1c(O)c(C/C=C(\\C)C/C=C/C(C)(C)O)c2oc3ccc(O)cc3c(=O)c2c1O"
value_type = "log10 IC50"
reading = 1.55

[[record]]
compound = "CC(C)=CCC/C(C)=C/Cc1c(O)c(CC=C(C)C)c(O)c2c(=O)c3cc(O)ccc3oc12"
value_type = "log10 IC50"
reading = 0.99

